Test: Blood brain barrier penetration assay in rats (short oral absorption model)
Type: in vivo
Conditions: male, Han Wistar, rat, CSF, po, male Han Wistar rats, oral; AUC(CSF)/AUC(blood or plasma) x 1/fu; read-out: Kp,uu CSF
# label = fulfilled if Kp uu < 0.5 else not fulfilled

A record lists COc1cc(OC2CCN(C)CC2(F)F)c2c(Nc3cc(C)c(Oc4ccn5ncnc5c4)cc3F)ncnc2c1 (single isomer, unassigned) . Is its Kp uu below 0.5?
fulfilled

A record lists Cc1cc(Nc2ncnc3cccc(OC4CCN(C)CC4(F)F)c23)ccc1Oc1ccn2ncnc2c1 (single isomer, unassigned) . Is its Kp uu below 0.5?
not fulfilled
